The measured values listed here are drawn from patent US20120077737A1.

Test system: HCV genotype 1a subgenomic replicon with NS3 resistance mutation R155K
Experiment: HCV replicon RNA replication assay, R155K 1a
Type: cell-based, HCV genotype 1a (strain H77), Huh-7 cells
Conditions: Hepatitis C virus, Huh-7, 72 h, read-out: R155K 1a Ec50 (nM)
Measured EC50 of individual entries
ATTRIBUTE_MEASURED: EC50 (nM)

INSERT INTO results (smiles_text, reported_value) VALUES
  ('Cc1c(Cl)ccc2c(O[C@@H]3C[C@H]4C(=O)N[C@]5(C(=O)NS(=O)(=O)C6(C)CC6)C[C@H]5/C=C\CCCCC[C@H](NC(=O)c5ccn(C)n5)C(=O)N4C3)cc(OC(C)C)nc12', 7.7),
  ('COc1c(F)ccc2c(O[C@@H]3C[C@H]4C(=O)N[C@]5(C(=O)NS(=O)(=O)C6(C)CC6)C[C@H]5/C=C\CCCCC[C@H](NC(=O)c5ccn(C(C)C)n5)C(=O)N4C3)cc(OC(C)C)nc12', 3.1),
  ('Cc1ccc2c(O[C@@H]3C[C@H]4C(=O)N[C@]5(C(=O)NS(=O)(=O)C6(C)CC6)C[C@H]5/C=C\CCCCC[C@H](NC(=O)c5ccn(C)n5)C(=O)N4C3)cc(OC(C)C)nc2c1Br', 9.3);

---

Test system: HCV genotype 1a subgenomic replicon with NS3 resistance mutation D168V
Assay: HCV replicon RNA replication assay, D168V 1a
Assay type: cell-based, HCV genotype 1a (strain H77), Huh-7 cells
Conditions: Hepatitis C virus, Huh-7, 72 h, read-out: D168V 1a Ec50 (nM)
ATTRIBUTE_MEASURED: EC50

INSERT INTO measurements (compound, reported_value) VALUES
  ('COc1ccc2c(O[C@@H]3C[C@H]4C(=O)N[C@]5(C(=O)NS(=O)(=O)C6CC6)C[C@H]5/C=C\CCCCC[C@H](NC(=O)c5ccn(CC(F)(F)F)n5)C(=O)N4C3)cc(OC(C)C)nc2c1C [Compound 1012]', '1.9 nM'),
  ('COc1ccc2c(O[C@@H]3C[C@H]4C(=O)N[C@]5(C(=O)NS(=O)(=O)C6(C)CC6)C[C@H]5/C=C\CCCCC[C@H](NC(=O)c5ccn(CCF)n5)C(=O)N4C3)cc(OC(C)C)nc2c1C [Compound 1004]', '1.8 nM'),
  ('Cc1c(Cl)ccc2c(O[C@@H]3C[C@H]4C(=O)N[C@]5(C(=O)NS(=O)(=O)C6(C)CC6)C[C@H]5/C=C\CCCCC[C@H](NC(=O)c5ccn(C)n5)C(=O)N4C3)cc(OC(C)C)nc12 [Compound 1003]', '6.9 nM'),
  ('COc1ccc2c(O[C@@H]3C[C@H]4C(=O)N[C@]5(C(=O)NS(=O)(=O)C6(C)CC6)C[C@H]5/C=C\CCCCC[C@H](NC(=O)c5ccn(CC(F)F)n5)C(=O)N4C3)cc(OC(C)C)nc2c1C [Compound 1001]', '0.78 nM'),
  ('COc1c(F)ccc2c(O[C@@H]3C[C@H]4C(=O)N[C@]5(C(=O)NS(=O)(=O)C6(C)CC6)C[C@H]5/C=C\CCCCC[C@H](NC(=O)c5ccn(C(C)C)n5)C(=O)N4C3)cc(OC(C)C)nc12 [Compound 1023]', '0.83 nM');

---

Measured EC50 of individual entries
Test system: HCV genotype 1a subgenomic replicon with NS3 resistance mutation R155K
Test: HCV replicon RNA replication assay, R155K 1a
Type: cell-based, HCV genotype 1a (strain H77), Huh-7 cells
Conditions: Hepatitis C virus, Huh-7, 72 h, read-out: R155K 1a Ec50 (nM)
ATTRIBUTE_MEASURED: EC50 (nM)

INSERT INTO results (smiles_text, unit_string, reported_value) VALUES
  ('COc1ccc2c(O[C@@H]3C[C@H]4C(=O)N[C@]5(C(=O)NS(=O)(=O)C6CC6)C[C@H]5/C=C\CCCCC[C@H](NC(=O)c5ccn(CC(F)F)n5)C(=O)N4C3)cc(OC(C)C)nc2c1C', 'nM', 3.9),
  ('COc1ccc2c(O[C@@H]3C[C@H]4C(=O)N[C@]5(C(=O)NS(=O)(=O)C6(C)CC6)C[C@H]5/C=C\CCCCC[C@H](NC(=O)c5ccn(C)n5)C(=O)N4C3)cc(OCC(F)(F)F)nc2c1C', 'nM', 1.5),
  ('COCc1ccc(C(=O)N[C@H]2CCCCC/C=C\[C@@H]3C[C@@]3(C(=O)NS(=O)(=O)C3CC3)NC(=O)[C@@H]3C[C@@H](Oc4cc(OC(C)C)nc5c(C)c(OC)ccc45)CN3C2=O)s1', 'nM', 3.6),
  ('COc1ccc2c(O[C@@H]3C[C@H]4C(=O)N[C@]5(C(=O)NS(=O)(=O)C6(C)CC6)C[C@H]5/C=C\CCCCC[C@H](NC(=O)c5ccn(CCF)n5)C(=O)N4C3)cc(OC(C)C)nc2c1C', 'nM', 1.3),
  ('COc1ccc2c(O[C@@H]3C[C@H]4C(=O)N[C@]5(C(=O)NS(=O)(=O)C6(C)CC6)C[C@H]5/C=C\CCCCC[C@H](NC(=O)c5ccn(CC(=O)N(C)C)n5)C(=O)N4C3)cc(OC(C)C)nc2c1C', 'nM', 1.2),
  ('COc1ccc2c(O[C@@H]3C[C@H]4C(=O)N[C@]5(C(=O)NS(=O)(=O)C6(C)CC6)C[C@H]5/C=C\CCCCC[C@H](NC(=O)c5cnn(C)n5)C(=O)N4C3)cc(OC(C)C)nc2c1C', 'nM', 2.2);

---

Test system: HCV genotype 1a subgenomic replicon with NS3 resistance mutation D168V
Assay: HCV replicon RNA replication assay, D168V 1a
Type: cell-based, HCV genotype 1a (strain H77), Huh-7 cells
Conditions: Hepatitis C virus, Huh-7, 72 h, read-out: D168V 1a Ec50 (nM)
Measured EC50 of individual entries
ATTRIBUTE_MEASURED: EC50

INSERT INTO measurements (smiles_text, reported_value) VALUES
  ('COc1ccc2c(O[C@@H]3C[C@H]4C(=O)N[C@]5(C(=O)NS(=O)(=O)C6(C)CC6)C[C@H]5/C=C\CCCCC[C@H](NC(=O)c5cnn(CC(F)F)n5)C(=O)N4C3)cc(OC(C)C)nc2c1C', '5.6 nM'),
  ('COc1ccc2c(O[C@@H]3C[C@H]4C(=O)N[C@]5(C(=O)NS(=O)(=O)C6(C)CC6)C[C@H]5/C=C\CCCCC[C@H](NC(=O)c5ccn(CC(F)(F)F)n5)C(=O)N4C3)cc(OC(C)C)nc2c1C', '1.4 nM'),
  ('COc1c(F)ccc2c(O[C@@H]3C[C@H]4C(=O)N[C@]5(C(=O)NS(=O)(=O)C6(C)CC6)C[C@H]5/C=C\CCCCC[C@H](NC(=O)c5ccn(C(F)F)n5)C(=O)N4C3)cc(OC(C)C)nc12', '2.2 nM'),
  ('COc1c(F)ccc2c(O[C@@H]3C[C@H]4C(=O)N[C@]5(C(=O)NS(=O)(=O)C6(C)CC6)C[C@H]5/C=C\CCCCC[C@H](NC(=O)c5ccn(CCF)n5)C(=O)N4C3)cc(OC(C)C)nc12', '0.93 nM'),
  ('CNC(=O)Cn1ccc(C(=O)N[C@H]2CCCCC/C=C\[C@@H]3C[C@@]3(C(=O)NS(=O)(=O)C3(C)CC3)NC(=O)[C@@H]3C[C@@H](Oc4cc(OC(C)C)nc5c(C)c(OC)ccc45)CN3C2=O)n1', '5.4 nM'),
  ('COc1c(F)ccc2c(O[C@@H]3C[C@H]4C(=O)N[C@]5(C(=O)NS(=O)(=O)C6(C)CC6)C[C@H]5/C=C\CCCCC[C@H](NC(=O)c5ccc(C)s5)C(=O)N4C3)cc(OC(C)C)nc12', '5.5 nM'),
  ('COc1c(F)ccc2c(O[C@@H]3C[C@H]4C(=O)N[C@]5(C(=O)NS(=O)(=O)C6(C)CC6)C[C@H]5/C=C\CCCCC[C@H](NC(=O)c5ccn(CC(F)F)n5)C(=O)N4C3)cc(OC(C)C)nc12', '0.97 nM'),
  ('CC(C)Oc1cc(O[C@@H]2C[C@H]3C(=O)N[C@]4(C(=O)NS(=O)(=O)C5(C)CC5)C[C@H]4/C=C\CCCCC[C@H](NC(=O)c4ccn(C)n4)C(=O)N3C2)c2ccc(Cl)c(Cl)c2n1', '3.8 nM'),
  ('COCCn1ccc(C(=O)N[C@H]2CCCCC/C=C\[C@@H]3C[C@@]3(C(=O)NS(=O)(=O)C3(C)CC3)NC(=O)[C@@H]3C[C@@H](Oc4cc(OC(C)C)nc5c(C)c(OC)ccc45)CN3C2=O)n1', '2.8 nM');

---

System: HCV genotype 1a subgenomic replicon with NS3 resistance mutation D168V
Assay: HCV replicon RNA replication assay, D168V 1a
Type: cell-based, HCV genotype 1a (strain H77), Huh-7 cells
Conditions: Hepatitis C virus, read-out: D168V 1a Ec50 (nM)
ATTRIBUTE_MEASURED: EC50 (nM)

INSERT INTO results (compound, reported_value) VALUES
  ('COc1ccc2c(O[C@@H]3C[C@H]4C(=O)N[C@@]5(C(=O)NS(=O)(=O)C6CC6)C[C@@H]5/C=C\CCCCN(C)C(=O)[C@@H]4C3)cc(-c3nc(C(C)C)cs3)nc2c1C [reference compound]', 3500),
  ('CC[C@@H]1C[C@]1(NC(=O)[C@@H]1C[C@@H]2CN1C(=O)[C@H](C(C)(C)C)NC(=O)OCC(C)(C)CCCCc1cccc3c1CN(C3)C(=O)O2)C(=O)NS(=O)(=O)C1CC1 [reference compound]', 3900),
  ('CC(C)(C)OC(=O)N[C@H]1CCCCC/C=C\[C@@H]2C[C@@]2(C(=O)NS(=O)(=O)C2CC2)NC(=O)[C@@H]2C[C@@H](OC(=O)N3Cc4cccc(F)c4C3)CN2C1=O [reference compound]', 180);
